- PROTOCOL DETAILS: Volume of distribution in rat at 1 mg/kg, iv
- Format: ADME, organism-based
- Design: dose 1 mg/kg, route intravenous
- CONDITIONS: in vivo
TEST READOUT: Vd
Don't forget the unit after the number, please.

Would you kindly share the measured Vd for COc1ccccc1S(=O)(=O)Nc1ccc2c(c1)CN(C)C(=O)N2 ?
1 L/kg

---

- PROTOCOL DETAILS: Protein binding in rat plasma
- Format: ADME, cell-free
- CONDITIONS: read-out: PPB (converted)
TEST READOUT: fraction unbound

Would you kindly share the measured fraction unbound for COc1ccccc1S(=O)(=O)Nc1ccc2c(c1)CN(C)C(=O)N2 ?
0.31

---

- PROTOCOL DETAILS: Oral bioavailability […] in rat at 2 mg/kg
- Format: ADME, organism-based
- CONDITIONS: in vivo
TEST READOUT: bioavailability (%)
Entry rule: numbers only, all in %.

Would you kindly share the measured bioavailability for COc1ccccc1S(=O)(=O)Nc1ccc2c(c1)CN(C)C(=O)N2 ?
32

---

- SYSTEM UNDER TEST: Bromodomain-containing protein 4 (Homo sapiens)
- PROTOCOL DETAILS: Inhibition of BRD4 isoform 1 by AlphaScreen assay
TEST READOUT: IC50 (nM)
Entry rule: numbers only, all in nM.

Answered examples (3):
Would you kindly share the measured IC50 for CCNS(=O)(=O)c1ccc2c(c1)CN(C)C(=O)N2 ?
1900

Another molecule to check: CN1Cc2cc(NS(=O)(=O)c3ccccc3)ccc2NC1=O
880

Another molecule to check: Cc1ccccc1S(=O)(=O)Nc1ccc2c(c1)CN(C)C(=O)N2
220

Further cases:
Would you kindly share the measured IC50 for CN1Cc2cc(S(=O)(=O)N3CCCC3)ccc2NC1=O ?
4800

Another molecule to check: CN1Cc2cc(NS(=O)(=O)c3ccc(F)cc3Cl)ccc2NC1=O
180

Another molecule to check: CN1Cc2cc(NS(=O)(=O)c3ccccc3C(F)(F)F)ccc2NC1=O
470

Another molecule to check: COc1ccc(S(=O)(=O)Nc2ccc3c(c2)CN(C)C(=O)N3)cc1
880

Another molecule to check: COc1cccc(S(=O)(=O)Nc2ccc3c(c2)CN(C)C(=O)N3)c1
730

Another molecule to check: CN1Cc2cc(NS(=O)(=O)c3ccc(C#N)cc3)ccc2NC1=O
2300

Another molecule to check: Cc1ccc(S(=O)(=O)Nc2ccc3c(c2)CN(C)C(=O)N3)cc1
390

Another molecule to check: CN1Cc2cc(NS(=O)(=O)c3ccccc3F)ccc2NC1=O
360

---

- PROTOCOL DETAILS: Cmax in mouse at 2 mg/kg, sc
- Format: ADME, organism-based
- Parameters: dose 2 mg/kg, route subcutaneous
- CONDITIONS: in vivo
TEST READOUT: Cmax (ng/mL)
Entry rule: numbers only, all in ng/mL.

Would you kindly share the measured Cmax for COc1ccccc1S(=O)(=O)Nc1ccc2c(c1)CN(C)C(=O)N2 ?
58

---

- Test system: PBMC
- PROTOCOL DETAILS: Inhibition of LPS-induced IL6 production in human PBMC by ELISA
- Assay type: functional, cell-based
TEST READOUT: EC50 (nM)
Entry rule: numbers only, all in nM.

Would you kindly share the measured EC50 for COc1ccccc1S(=O)(=O)Nc1ccc2c(c1)CN(C)C(=O)N2 ?
1890
